system: pyruvate kinase (pyk2, MALCv4_3080); assay: Effect of effectors on activity of purified recombinant pyruvate kinase; format: biochemical, Methylomicrobium alcaliphilum 20Z; details: effector 2 mM; control without effector = 100
MEASUREMENT_LABEL: Relative activity

1) O=P(O)(O)OP(=O)(O)O [PPi, pyrophosphate]; 14%
2) Nc1ncnc2c1ncn2[C@@H]1O[C@H](COP(=O)(O)O)[C@@H](O)[C@H]1O [AMP]; 126%
3) O=C(O)[C@@H](CO)OP(=O)(O)O [2-phosphoglycerate]; 75%
4) Nc1ncnc2c1ncn2[C@@H]1O[C@H](COP(=O)(O)OP(=O)(O)OP(=O)(O)O)[C@@H](O)[C@H]1O [ATP]; 12%

* * *

tested on: pyruvate kinase (pyk2, MALCv4_3080); experiment: Effect of effectors on activity of purified recombinant pyruvate kinase; type: biochemical, Methylomicrobium alcaliphilum 20Z; details: effector 5 mM; control without effector = 100
MEASUREMENT_LABEL: Relative activity (%)

1) O=C(CO)[C@@H](O)[C@H](O)[C@H](O)COP(=O)(O)O [Fructose-6-phosphate]; 2518
2) O=C[C@H](O)[C@@H](O)[C@H](O)[C@H](O)COP(=O)(O)O [Glucose-6-phosphate]; 2545
3) O=C(CO)[C@H](O)[C@H](O)COP(=O)(O)O [Ribulose-5-phosphate]; 1890
4) O=C[C@H](O)[C@H](O)COP(=O)(O)O [Erythrose-4-phosphate]; 740
5) O=C(COP(=O)(O)O)[C@@H](O)[C@H](O)[C@H](O)CO [Fructose-1-phosphate]; 270
6) O=C(COP(=O)(O)O)[C@@H](O)[C@H](O)[C@H](O)COP(=O)(O)O [Fructose-1,6-bisphosphate]; 158
7) O=P(O)(O)O[C@H]1O[C@H](CO)[C@@H](O)[C@H](O)[C@H]1O [Glucose-1-phosphate]; 67
8) O=P(O)(O)O[C@H]1O[C@H](CO)[C@@H](O)[C@H]1O [Ribose-1-phosphate]; 92
9) O=C[C@H](O)[C@H](O)[C@H](O)COP(=O)(O)O [Ribose-5-phosphate]; 2092

* * *

system: pyruvate kinase (pyk2, MALCv4_3080); test: Effect of effectors on activity of purified recombinant pyruvate kinase; format: biochemical, Methylomicrobium alcaliphilum 20Z; settings: effector 1 mM; control without effector = 100
MEASUREMENT_LABEL: Relative activity (%)

1) O=C(O)CC(O)C(=O)O (stereo not shown) [Malate]; 82
2) O=C(O)CC(O)(CC(=O)O)C(=O)O [Citrate]; 140
3) N[C@@H](CO)C(=O)O; 133
4) Nc1ncnc2c1ncn2[C@@H]1O[C@H](COP(=O)(O)OP(=O)(O)OP(=O)(O)O)[C@@H](O)[C@H]1O; 32
